Origin of measurements: ChEMBL document CHEMBL4219092

- experimentSummary: Cmax in ICR mouse at 0.1 mg/kg, iv and 1 mg/kg, po administered as cassette dose by LC-MS/MS analysis
- Assay type: ADME, organism-based
- conditions: in vivo
assayReadout: Cmax

Cmax reading for "Cc1nn(-c2cccc3cc(Cc4cccc(C(F)(F)F)c4)sc23)c(CO)c1C(=O)NCCO" : 83 ng/mL

###

- experimentSummary: Protein binding in mouse plasma at 1 uM
- Type: ADME, cell-free
- conditions: read-out: PPB (converted)
assayReadout: fraction unbound at 1 µM

fraction unbound at 1 µM reading for "Cc1nn(-c2cccc3cc(Cc4cccc(C(F)(F)F)c4)sc23)c(CO)c1C(=O)NCCO" : 0.02
